Molecular target: T1, huNOV (Homo sapiens, UniProt P48745)
T1 sequence (P48745 32-357): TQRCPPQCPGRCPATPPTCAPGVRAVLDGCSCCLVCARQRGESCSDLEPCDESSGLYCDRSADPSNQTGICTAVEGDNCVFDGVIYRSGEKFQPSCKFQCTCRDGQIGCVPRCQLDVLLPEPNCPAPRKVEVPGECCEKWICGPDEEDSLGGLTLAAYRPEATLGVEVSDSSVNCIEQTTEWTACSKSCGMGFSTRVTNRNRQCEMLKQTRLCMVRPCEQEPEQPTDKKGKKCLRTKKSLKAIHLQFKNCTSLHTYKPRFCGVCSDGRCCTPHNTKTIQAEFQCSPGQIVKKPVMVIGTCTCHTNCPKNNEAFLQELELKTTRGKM
Experiment: Specificity ELISA (CCN proteins), huNOV
Assay type: binding
Details: coated 1 μg/ml; assessed when human CTGF signal approached saturation

molecule	ELISA binding to huNOV
SEQ ID NO: 9: parent CTGF-binding hNGAL lipocalin mutein (protein, lipocalin mutein) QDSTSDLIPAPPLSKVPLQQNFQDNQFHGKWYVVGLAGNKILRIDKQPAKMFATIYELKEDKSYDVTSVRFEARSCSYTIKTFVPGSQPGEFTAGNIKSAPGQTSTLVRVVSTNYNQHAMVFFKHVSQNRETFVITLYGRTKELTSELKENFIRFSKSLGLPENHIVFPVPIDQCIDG	No binding
SEQ ID NO: 29: parent CTGF-binding hNGAL lipocalin mutein (protein, lipocalin mutein) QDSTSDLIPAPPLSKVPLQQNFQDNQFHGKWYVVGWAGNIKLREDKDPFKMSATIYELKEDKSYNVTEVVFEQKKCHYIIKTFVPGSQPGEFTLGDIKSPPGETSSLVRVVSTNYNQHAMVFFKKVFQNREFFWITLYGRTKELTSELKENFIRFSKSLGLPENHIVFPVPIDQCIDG	No binding
